system: ryegrass, Italian (Italian ryegrass, Lolium multiflorum); assay: Test C greenhouse herbicide test, pre- and postemergence; assay type: in vivo; conditions: Preemergence, 31 g ai/ha; scale 0 to 100, 0 is no effect, 100 is complete control
# label = TRUE if Plant response rating, Ryegrass, Italian < 40 else FALSE

Q: hey, is Plant response rating, Ryegrass, Italian for `Cc1nn(C)c(=O)c(-c2ccc(Cl)c3ccccc23)c1O` lower than 40 or not?
A: FALSE

Q: hey, is Plant response rating, Ryegrass, Italian for `CC(=O)Oc1c(Cl)nn(C)c(=O)c1-c1c(C)sc2ccc(C(F)(F)F)cc12` lower than 40 or not?
A: TRUE

Q: hey, is Plant response rating, Ryegrass, Italian for `Cc1nn(C)c(=O)c(-c2c(C)sc3ccc(Br)cc23)c1O` lower than 40 or not?
A: FALSE

Q: hey, is Plant response rating, Ryegrass, Italian for `CCC(=O)Oc1c(C)nn(C)c(=O)c1-c1ccc(Br)c2ccccc12` lower than 40 or not?
A: FALSE

Q: hey, is Plant response rating, Ryegrass, Italian for `Cc1cc(C)c2sc(C)c(-c3c(O)c(C)nn(C)c3=O)c2c1` lower than 40 or not?
A: FALSE

Q: hey, is Plant response rating, Ryegrass, Italian for `Cc1ccc2ccccc2c1-c1c(O)c(I)nn(C)c1=O` lower than 40 or not?
A: FALSE

Q: hey, is Plant response rating, Ryegrass, Italian for `Cc1nn(C)c(=O)c(-c2cccc3ccccc23)c1O` lower than 40 or not?
A: FALSE

Q: hey, is Plant response rating, Ryegrass, Italian for `Cc1ccc2sc(Br)c(-c3c(O)c(C)nn(C)c3=O)c2c1` lower than 40 or not?
A: TRUE

Q: hey, is Plant response rating, Ryegrass, Italian for `COC(=O)Oc1c(OC)nn(C)c(=O)c1-c1c(C)ccc2ccccc12` lower than 40 or not?
A: FALSE

Q: hey, is Plant response rating, Ryegrass, Italian for `CCc1sc2c(C)cc(C)cc2c1-c1c(O)c(C)nn(C)c1=O` lower than 40 or not?
A: FALSE

Q: hey, is Plant response rating, Ryegrass, Italian for `Cc1cc2ccccc2c(-c2c(O)c(C)nn(C)c2=O)c1C` lower than 40 or not?
A: FALSE

Q: hey, is Plant response rating, Ryegrass, Italian for `Cc1ccc2ccccc2c1-c1c(O)c(C(F)(F)F)nn(C)c1=O` lower than 40 or not?
A: TRUE

* * *

I'd be grateful if you could share measured Plant response rating, Ryegrass, Italian for these entries.
system: Italian ryegrass (Lolium multiflorum); assay: Test E greenhouse herbicide test, pre- and postemergence; assay type: in vivo; conditions: 62 g ai/ha, Postemergence; scale 0 to 100 (0 no effect, 100 complete control)
// no unit string in output, number only

Q: Look up Plant response rating, Ryegrass, Italian of Cc1nn(C)c(=O)c(-c2ccc(Br)c3ccccc23)c1O [Compound 75] and report it.
A: 80

Q: Look up Plant response rating, Ryegrass, Italian of CCc1sc2ccc(C)cc2c1-c1c(O)c(C)nn(C)c1=O [Compound 47] and report it.
A: 0

Q: Look up Plant response rating, Ryegrass, Italian of Cc1nn(C)c(=O)c(-c2cccc3ccc(Br)cc23)c1O [Compound 126] and report it.
A: 80

Q: Look up Plant response rating, Ryegrass, Italian of CCCC(=O)Oc1c(C)nn(C)c(=O)c1-c1c(C)sc2ccc(C)cc12 [Compound 105] and report it.
A: 70

Q: Look up Plant response rating, Ryegrass, Italian of Cc1ccc2ccccc2c1-c1c(OC(=O)OC(C)C)c(C)nn(C)c1=O [Compound 72] and report it.
A: 80

Reference source for all entries: patent US10597388B2
